All values here come from the supplement of paper PMC13380429.

- System: Vero E6
- methodDescription: cell viability relative to DMSO; higher = less toxic
- experimentalSetup: 72 h; 100 nM
Entries and their cell viability values follow.
State just the number; it will be interpreted in %.

Field: example entries. Status: answers known.
compound | scaleUnit | cell viability
COc1cc2c(cc1-c1c(C)noc1C)ncc1[nH]c(=O)n([C@H](C)c3ccccn3)c12 [I-BET151] | % | 94.6
Cc1cc(-c2ccccc2)nnc1NCCN1CCOCC1 [minaprine] | % | 98.8
N#Cc1ccc(N2CCN(C(=O)COc3ccc4[nH]cc(CCN)c4c3)CC2)cc1 [donitriptan] | % | 98
CCCC(=O)Nc1ccc(OCC(O)CNC(C)C)c(C(C)=O)c1 (configuration not stated) [acebutolol] | % | 93.8

(Q) // cell viability lookup, key: CN(C(=O)Cc1ccc(Cl)c(Cl)c1)[C@H](CN1CCCC1)c1ccccc1
(A) 107

(Q) Record request: cell viability value, item Cc1cc(N)c2ccccc2[n+]1CCCCCCCCCC[n+]1c(C)cc(N)c2ccccc21 [dequalinium]
(A) 104

(Q) # query: cell viability of entry CC(=O)N1CCC(C(=O)N(CCCN2CCC(Cc3ccc(C(N)=O)cc3)CC2)c2ccc(C)c(Cl)c2)CC1 [TAK-220]
(A) 106

(Q) Consider the compound c1ccc(CNc2nc(NCc3ccccc3)c3ccccc3n2)cc1 [DBeQ] and give its measured cell viability.
(A) 95.5

(Q) # cell viability lookup, item Cc1c(NC(=O)OC[C@@H]2COCCN2)cn2ncnc(Nc3ccc4c(cnn4Cc4cccc(F)c4)c3)c12
(A) 91.7

(Q) I'd like to know its cell viability. The compound in question is CN(C)CCCN1c2ccccc2Sc2ccc(Cl)cc21 [chlorpromazine]
(A) 97.4

(Q) Looking for the measured cell viability of CN(C)c1ccc(-c2nc3c(N4CCN(CC(=O)Nc5nccs5)CC4)c(Cl)cnc3[nH]2)cc1 , can you help?
(A) 88.7

(Q) What measured cell viability goes with O=C(Nc1cccnn1)N1CCC(=Cc2cccc(Oc3ccc(C(F)(F)F)cn3)c2)CC1 ?
(A) 93.2

(Q) Could you tell me which cell viability is on file for CCOC(=O)O[C@]1(C(=O)OCCl)CC[C@H]2[C@@H]3CCC4=CC(=O)C=C[C@]4(C)[C@H]3[C@@H](O)C[C@@]21C [loteprednol] ?
(A) 102

(Q) Report cell viability for CC(C)(C)c1ccc(C(=O)CCCN2CCC(OC(c3ccccc3)c3ccccc3)CC2)cc1 [ebastine] please.
(A) 92.1

(Q) Please report the recorded cell viability for CO[C@@H]1[C@@H](O[C@@H]2O[C@H](C)[C@@H](O[C@H]3C[C@@](C)(O)[C@@H](OC(=O)CC(C)C)[C@H](C)O3)[C@H](N(C)C)[C@H]2O)[C@@H](CC=O)C[C@@H](C)[C@@H](O)/C=C/C=C/C[C@@H](C)OC(=O)C[C@H]1OC(C)=O [josamycin] .
(A) 105

(Q) Could you tell me which cell viability is on file for CC(Cc1ccccc1)(NC(=O)CN)c1ccccc1 (configuration not stated) [remacemide] ?
(A) 102

(Q) Using the record for CS[C@H]1SC[C@H]2C(=O)N(C)[C@@H](C(C)C)C(=O)OC[C@@H](NC(=O)c3cnc4ccccc4n3)C(=O)N[C@@H](C)C(=O)N(C)[C@@H]1C(=O)N(C)[C@@H](C(C)C)C(=O)OC[C@@H](NC(=O)c1cnc3ccccc3n1)C(=O)N[C@@H](C)C(=O)N2C [echinomycin] , report its cell viability.
(A) 2.1

----------
- Test system: HepG2
- methodDescription: cell viability relative to DMSO; higher = less toxic
- experimentalSetup: 72 h; 10 nM
// values below are reported cell viability
Answer with a number only, understood to be in %.

molecule | targetEntity | cell viability, %
OC(CNCC(O)C1CCc2cc(F)ccc2O1)C1CCc2cc(F)ccc2O1 (stereo not drawn) | HepG2 | 112
CCCCCCOC(=O)NC(=N)c1ccc(NCc2nc3cc(C(=O)N(CCC(=O)OCC)c4ccccn4)ccc3n2C)cc1 [dabigatran-etexilate] | HepG2 | 106
COc1cc2nc(N3CCN(C(=O)c4ccco4)CC3)nc(N)c2cc1OC | HepG2 | 93.5
COc1cc(N)c(Cl)cc1C(=O)OCCN1CCCCC1 | HepG2 | 96.9
COc1ccc2c(c1)[C@]13CCCC[C@@H]1[C@H](C2)N(C)CC3 | HepG2 | 108
O=C1NN(C(=O)Nc2ccc(Br)cc2)[C@@H](c2ccccc2)[C@@H]1c1ccccc1 | HepG2 | 89.3
CCCCNc1ncc2c(-c3ccc(CN4CCN(C)CC4)cc3)cn([C@H]3CC[C@H](O)CC3)c2n1 | HepG2 | 94
CC(C)(C)c1ccc(C(=O)CCCN2CCC(OC(c3ccccc3)c3ccccc3)CC2)cc1 | HepG2 | 110

(Q) Requested read-out cell viability, target or system HepG2, entry O=C(Nc1cc(C(F)(F)F)cc(C(F)(F)F)c1)c1cc(Cl)ccc1O
(A) 99.6

(Q) Query the reported cell viability for HepG2; item: CC[C@H](CO)Nc1nc(Nc2cccc(-c3ccccn3)c2)c2ncn(C(C)C)c2n1 [DRF053-(R)]
(A) 108

(Q) What cell viability appears in the records for this molecule with HepG2? CNC(=O)Nc1ccc(-c2nc(N3CC4CCC(C3)O4)c3cnn(C4CCC5(CC4)OCCO5)c3n2)cc1
(A) 97.6

(Q) Identify the measured cell viability of CC(=O)Nc1c(I)c(C(=O)O)c(I)c(N(C)C(C)=O)c1I for HepG2.
(A) 104

----------
# key: entry, value: relative viability EC50
- Test system: Caco-2
- methodDescription: relative viability EC50 (midpoint between 100% and the lowest measured viability); higher = less toxic
- experimentalSetup: 72 h
Where a name gives a salt, the structure may show the parent alone.

These solved cases illustrate the format of a correct answer.
compound | targetEntity | relative viability EC50
O=C(O)Cc1ccc(OCc2ccccc2)c(Cl)c1 | Caco-2 | > 10 µM
CC(=O)Nc1ccc(C(=O)O)cc1 | Caco-2 | > 10 µM
O=C(NCC(=O)N1CCCCC1)Nc1ccc2nnsc2c1 | Caco-2 | > 10 µM
C[C@]12CC[C@@H]3c4ccc(O)cc4CC[C@H]3[C@@H]1CC[C@@H]2OC(=O)CCC1CCCC1 [estradiol-cypionate] | Caco-2 | > 10 µM
CN[C@H]1CC[C@@H](c2ccc(Cl)c(Cl)c2)c2ccccc21 [SERTRALINE HYDROCHLORIDE] | Caco-2 | > 10 µM

(Q) Any idea what relative viability EC50 was measured for O=C(c1ccccc1)c1ccc2n1CCC2C(=O)O (stereo not given) ?
(A) > 10 µM

(Q) Consider the compound shown here: Cc1oc2ccccc2c1CNC(=O)NCc1cccs1 What is its recorded relative viability EC50?
(A) > 10 µM

(Q) Quick one: relative viability EC50 of OC1=c2ccccc2=C(NC2CCCCC2)/C1=C\c1ccccc1 ?
(A) 1.86 µM

(Q) Look up relative viability EC50: c1ccc(CNc2nc(NCc3ccccc3)c3ccccc3n2)cc1
(A) 3.17 µM

(Q) Dear colleague, I am looking for the recorded relative viability EC50 of the following compound: C[C@@H]1c2ccccc2CN1CC1=NCCN1 (racemic)
(A) > 10 µM

----------
Recorded drug sensitivity score, one value per entry.
- Tested on: Caco-2
- methodDescription: drug sensitivity score (DSS) for viability; higher = more toxic; extreme values may be limits of the assay
- experimentalSetup: 72 h
Give the value as a plain number.

compound | drug sensitivity score
CCCCCCOC(=O)NC(=N)c1ccc(NCc2nc3cc(C(=O)N(CCC(=O)OCC)c4ccccn4)ccc3n2C)cc1 [dabigatran-etexilate] | 1.5

(Q) What measured drug sensitivity score goes with CC1(C)[C@@H](OC(=O)CCC(=O)O)CC[C@]2(C)[C@H]3C(=O)C=C4[C@@H]5C[C@@](C)(C(=O)O)CC[C@]5(C)CC[C@@]4(C)[C@]3(C)CC[C@@H]12 [CARBENOXOLONE SODIUM] ?
(A) 0

(Q) # drug sensitivity score lookup, item NC1(c2ccc(-c3nc4ccn5c(=O)[nH]nc5c4cc3-c3ccccc3)cc2)CCC1
(A) 5.4

----------
- Test system: Vero E6
- methodDescription: cell viability relative to DMSO; higher = less toxic
- experimentalSetup: 72 h; 1 nM
Structures can show the parent of a compound that is named as a salt.
The following molecules are listed with their measured cell viability values.
Answer with a number only, understood to be in %.

As a guide, the following entries are already answered.
molecule | cell viability, %
Nc1nc(F)nc2c1ncn2[C@@H]1O[C@H](COP(=O)(O)O)[C@@H](O)[C@@H]1O [fludarabine-phosphate] | 104
COC(=O)c1cnn(-c2ccc(F)cc2F)c1/C=N/NC(=S)NC(C)(C)C | 106
CNC(=O)Oc1ccccc1OC(C)C | 95
CN[C@H]1CC[C@@H](c2ccc(Cl)c(Cl)c2)c2ccccc21 [SERTRALINE HYDROCHLORIDE] | 98.5
N[C@@H](CC(=O)N1CCn2c(nnc2C(F)(F)F)C1)Cc1cc(F)c(F)cc1F | 97.7

(Q) Fill in: cell viability of N#C[C@@H]1C[C@@H]2C[C@@H]2N1C(=O)[C@@H](N)C12CC3CC(CC(O)(C3)C1)C2 is ___
(A) 95.5

(Q) Consider the molecule Cc1oc2ccccc2c1CNC(=O)NCc1cccs1 and give its measured cell viability.
(A) 103

(Q) Value lookup for cell viability; key = COc1ccc(NC(=O)c2ccc(-c3ccc(-c4noc(C)n4)cc3C)cc2)cc1OCCN(C)C
(A) 98.1

(Q) Please look up its cell viability: O=C(Oc1ccc([N+](=O)[O-])cc1)N1CCN(Cc2cccc(Oc3ccccc3)c2)CC1
(A) 97.3

(Q) May I ask what cell viability has been recorded for CC(C)(C)n1nc(-c2ccc(Cl)cc2)c2c(N)ncnc21 ?
(A) 99.4

(Q) Request the reported cell viability associated with CC[C@@]1(O)C(=O)OCc2c1cc1n(c2=O)Cc2cc3c(CN(C)C)c(O)ccc3nc2-1
(A) 102
